The following molecules each carry a recorded Ki for Mu-type opioid receptor (Homo sapiens, UniProt P35372).
Peptide text beside a SMILES is read from it. * marks the point of attachment. NHBn = c1ccc(CN*)cc1
REPORTED ENDPOINT: Ki

> print(dat)
                                   molecule  experimental.result
1  C[C@H](NC(=O)[C@H](Cc1ccccc1)NC(=O)[C@@H]1CCCN1C(=O)[C@@H](N)Cc1ccc(O)cc1)C(=O)NCc1ccccc1               122 nM
2  CC(C)[C@@H](NC(=O)[C@H](Cc1c[nH]c2ccccc12)NC(=O)[C@@H]1CCCN1C(=O)[C@@H](N)Cc1ccc(O)cc1)C(=O)NCc1ccccc1              2.32 nM
3  C[C@@H](NC(=O)[C@H](Cc1c[nH]c2ccccc12)NC(=O)[C@@H]1CCCN1C(=O)[C@@H](N)Cc1ccc(O)cc1)C(=O)NCc1ccccc1              4.56 nM
4  C[C@@H](NC(=O)[C@H](Cc1ccccc1)NC(=O)[C@@H]1CCCN1C(=O)[C@@H](N)Cc1ccc(O)cc1)C(=O)NCc1ccccc1              8.67 nM
5  CC(C)[C@@H](NC(=O)[C@H](Cc1ccccc1)NC(=O)[C@@H]1CCCN1C(=O)[C@@H](N)Cc1ccc(O)cc1)C(=O)NCc1ccccc1              4.97 nM
6  N[C@@H](Cc1ccc(O)cc1)C(=O)N1CCC[C@H]1C(=O)N[C@@H](Cc1c[nH]c2ccccc12)C(=O)NCC(=O)NCc1ccccc1 (H-YPWG-NHBn)              56.2 nM

// data source = ChEMBL document CHEMBL1155981
